target: Follistatin-related protein 3 (Homo sapiens) (UniProt O95633); test: compounds binding follistatin-related protein 3 – biochemical, small-molecule microarray, 635 nm fluorescence, primary screen (AID 1105); conditions: FSTL3 binding, higher = more signal;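 note: score merges emission near 667 nm and signal to noise per printed spot across three slides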
Sequence (O95633 whole entry, looked up): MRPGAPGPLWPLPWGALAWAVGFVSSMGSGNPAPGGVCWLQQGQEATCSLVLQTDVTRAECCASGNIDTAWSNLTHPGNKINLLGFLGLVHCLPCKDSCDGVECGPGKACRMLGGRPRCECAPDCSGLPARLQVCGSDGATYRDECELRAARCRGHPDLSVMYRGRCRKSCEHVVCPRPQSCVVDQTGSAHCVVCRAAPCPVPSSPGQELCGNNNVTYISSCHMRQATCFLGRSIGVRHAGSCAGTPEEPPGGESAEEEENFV
Recorded composite z-score for the following compounds

>  <COMPOUND>
[N-]=[N+]=NCc1ccccc1[C@H]1OC(c2ccc(OCCCO)cc2)=N[C@@]1(Cc1ccccc1N=[N+]=[N-])C(=O)N1CCCCC1

>  <composite z-score>
1.25

$$$$
>  <COMPOUND>
C=CCNC(=O)[C@H]1[C@@H]2C(=O)O[C@@H](c3ccccc3)[C@@H](c3ccccc3)N2[C@@H](c2ccc(OCCO)cc2)[C@]12C(=O)N(C(=O)OCCOC)c1ccc(C#CC3=CCCCC3)cc12

>  <composite z-score>
1.11

$$$$
>  <COMPOUND>
OCc1ccc(-c2cc[n+](Cc3cccc(OC(F)(F)F)c3)cc2)cc1

>  <composite z-score>
1.48

$$$$
>  <COMPOUND>
COC(=O)[C@@]1(Cc2ccc(OC)cc2)[C@H]2c3cc(C(=O)N(C)C)n(CCF)c3C[C@H]2CN1C(=O)c1ccccc1

>  <composite z-score>
1.03

$$$$
>  <COMPOUND>
Cc1ccc(S[C@]2(C(=O)NCCN3CCOCC3)CC(=O)N(C3Cc4ccccc4C3)[C@@H]2c2ccc(CO)cc2)cc1

>  <composite z-score>
-0.804

$$$$
>  <COMPOUND>
C=C[C@@H](O)[C@H]1CC(c2ccccc2)=NO1

>  <composite z-score>
0.046

$$$$
>  <COMPOUND>
C[C@H]1ON(c2ccccc2)[C@@H](c2ccccc2)[C@@H]1C(=O)N1C(=O)OC[C@@H]1c1ccccc1

>  <composite z-score>
0.699

$$$$
>  <COMPOUND>
C[N+](C)(C)CCCCCCNC(=O)[C@H]1C[C@H]2C(=O)N3CCC[C@H]3C(=O)N2[C@H]1c1cccc(OCCO)c1

>  <composite z-score>
1.3

$$$$
>  <COMPOUND>
C=CCOC(=O)[C@@H]1[C@H]2C(=O)O[C@H](c3ccccc3)[C@H](c3ccccc3)N2[C@H](c2ccc(OCCOC(=O)[C@H]3C[C@H]4C(=O)N[C@@H](Cc5ccccc5)C(=O)N4[C@H]3c3cccc(OCCO)c3)cc2)[C@@]12C(=O)Nc1ccc(I)cc12

>  <composite z-score>
1.14

$$$$
>  <COMPOUND>
CCCC[C@H]1OB(O)C[C@H]2C1=C(COc1ccccc1)Cn1c(=O)n(-c3ccccc3)c(=O)n12

>  <composite z-score>
1.01

$$$$
>  <COMPOUND>
Cc1ccc(C(C)CC(O)C2C=CC3C(=O)N(Cc4ccccc4)C(=O)C3N2n2cnnc2)o1 (centres undefined)

>  <composite z-score>
0.668

$$$$
>  <COMPOUND>
[N-]=[N+]=NCc1ccccc1C[C@]1(C(=O)NCCN2CCOCC2)COC(c2ccc(OCCCO)cc2)=N1

>  <composite z-score>
0.101

$$$$
>  <COMPOUND>
COc1ccc(C#Cc2ccc3c(c2)[C@]2(C(=O)N3)[C@H](C(N)=O)[C@H]3C(=O)O[C@H](c4ccccc4)[C@H](c4ccccc4)N3[C@@H]2c2ccc(O)cc2)cc1

>  <composite z-score>
0.313

$$$$
>  <COMPOUND>
COCCOC(=O)N1C(=O)[C@@]2(c3cc(C#CCCO)ccc31)[C@H](c1ccc(OCCO)cc1)N1[C@H](c3ccccc3)[C@H](c3ccccc3)OC(=O)[C@H]1[C@@H]2C(=O)N1CCc2cc(OC)c(OC)cc2C1

>  <composite z-score>
0.882

$$$$
